- study target: human Arginine Vasopressin Receptor 1a (AVPR1a) (Homo sapiens, UniProt P37288)
- Sequence (P37288 whole entry): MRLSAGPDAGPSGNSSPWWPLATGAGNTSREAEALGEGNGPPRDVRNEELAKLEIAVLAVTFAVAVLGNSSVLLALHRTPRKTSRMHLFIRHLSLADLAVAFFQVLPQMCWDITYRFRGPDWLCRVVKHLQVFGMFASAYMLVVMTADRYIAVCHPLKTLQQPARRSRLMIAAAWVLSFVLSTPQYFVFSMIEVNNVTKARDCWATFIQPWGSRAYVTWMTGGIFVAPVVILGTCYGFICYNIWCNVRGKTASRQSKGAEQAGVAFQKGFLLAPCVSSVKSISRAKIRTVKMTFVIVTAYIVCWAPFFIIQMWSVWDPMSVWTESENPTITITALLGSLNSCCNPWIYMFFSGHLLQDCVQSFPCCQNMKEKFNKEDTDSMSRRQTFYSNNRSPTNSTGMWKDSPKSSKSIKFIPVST
- protocol notes: Vasopressin V1a receptor antagonist assay (FLIPR calcium, CHO-AVPR1a cells)
measured attribute: IC50

Illustrative cases are given below, each with its answer.
[[record]]
compound = "COc1ccnc(N2CC3(CN(C(=O)N4c5ccc(Cl)cc5OCC4C)C3)C2)n1 (centres unmarked) [20-9]"
study_target = "human Arginine Vasopressin Receptor 1a (AVPR1a) (Homo sapiens, UniProt P37288)"
val = "< 100 nM"

[[record]]
compound = "O=C(N1CC2(C1)CN(c1cccc(CO)n1)C2)N1CCOc2cc(Cl)ccc21"
study_target = "human Arginine Vasopressin Receptor 1a (AVPR1a) (Homo sapiens, UniProt P37288)"
val = "100 to 500 nM"

[[record]]
compound = "CC1COc2cc(Cl)ccc2N1C(=O)N1CC2(C1)CN(c1ncncc1F)C2 (centres unmarked)"
study_target = "human Arginine Vasopressin Receptor 1a (AVPR1a) (Homo sapiens, UniProt P37288)"
val = "< 100 nM"

[[record]]
compound = "Cc1nccnc1N1CC2(CN(C(=O)N3c4ccc(Cl)cc4OCC3C)C2)C1 (centres unmarked) [20-10]"
study_target = "human Arginine Vasopressin Receptor 1a (AVPR1a) (Homo sapiens, UniProt P37288)"
val = "< 100 nM"

[[record]]
compound = "O=C(N1CC2(C1)CN(c1ccnc(OC(F)F)c1)C2)N1CCOc2cc(Cl)ccc21"
study_target = "human Arginine Vasopressin Receptor 1a (AVPR1a) (Homo sapiens, UniProt P37288)"
val = "≥ 1000 nM"


Looking up Cc1ccc(N2CC3(CN(C(=O)N4CCOc5cc(Cl)ccc54)C3)C2)nn1 , I see its IC50 listed as 100 to 500 nM

Looking up CC1COc2cc(F)ccc2N1C(=O)N1CC2(C1)CN(c1ncc(F)cn1)C2 (single isomer, unassigned) [18-4-A] , I see its IC50 listed as ≥ 1000 nM

Looking up Cc1cnc(N2CC3(CN(C(=O)N4c5ccc(Cl)cc5OCC4C)C3)C2)nc1 (single isomer, unassigned) [20-13-B] , I see its IC50 listed as < 100 nM
